Tested on: Es-2
Assay: Primary qHTS to identify gynecologic anti-cancer compounds using libraries of approved drugs and bioactive compounds (AID 1345084); further: nearly all actives have a fitted effect of over 55% in size
Settings: Gynecologic cancer cell panel viability, ATPlite luminescence, 48 h; series mostly up to 57.5 µM
Results filed as inconclusive are left out. Calls of active or inactive are those of the source. The call rests on the fitted dose curve; in most records, active means well fitted cell-killing curve with a large enough effect; inconclusive means small, poorly fitted or top-dose-only effect, or effect the other way; inactive means flat fitted curve, though single readings scatter.
Outcome (select one): active, inactive

Data request: // outcome(item) with item = CCCC(=O)NCCc1csc(-c2ccc(Cl)cc2)n1
Data returned: inactive

Data request: Moving on to CCCC(=O)O[C@@H]1[C@@H]2[C@@H](OC(C)=O)[C@]3(C)C(=O)[C@H]4[C@@H](OC(C)=O)C(C)(C)C[C@H]4[C@]3(C)C(=O)[C@@]2(OC(C)=O)C[C@@H]1C
Data returned: inactive

Data request: Proceed to COC1/C=C/C(C)(O)C(SCC(N)C(=O)O)CC(=O)OC(C)C(C)CC/C=C/1C (configuration not stated)
Data returned: inactive

Data request: Record: CCC(O)(C(=O)OCc1ccccc1NC(=O)CCC(=O)O)C(C)O (configuration not stated)
Data returned: inactive

Data request: And then CC[C@@](C)(Nc1ccnc(-c2c[nH]c3ncccc23)n1)C(=O)NCC(F)(F)F , what is it?
Data returned: inactive

Data request: Next entry: CC1=CC(=O)[C@H]2C(C)(C)CCC[C@]2(C)[C@@]1(O)CO
Data returned: inactive

Data request: Also, COC(=O)c1cc(OC)c(O[C@@H]2O[C@@H](C)[C@H](O)[C@@H](O)[C@H]2O)c(OC)c1 please.
Data returned: inactive

Data request: One more compound: CCN1CCN(Cc2ccc(NC(=O)c3ccc(C)c(NC(=O)c4cncc(-c5cccs5)c4)c3)cc2C(F)(F)F)CC1
Data returned: active

Data request: Moving on to the next compound: COc1ccc(-c2c(-c3cc(C(=O)O)ccn3)ncn2C)cc1
Data returned: inactive

Data request: What about this compound? CC(=O)O[C@H]1[C@@H](O)[C@H](O[C@H]2[C@@H]3C=CO[C@@H](O[C@H]4O[C@@H](CO)[C@H](O)[C@@H](O)[C@@H]4O)[C@@H]3[C@@]3(CO)O[C@@H]23)O[C@@H](C)[C@@H]1OC(=O)/C=C/c1ccccc1
Data returned: inactive

Data request: Also COC(=O)C1=CO[C@@H](O)C2C(CO)=CCC12 (some centres not stated) ?
Data returned: inactive

Data request: Entry CC1=CC(=O)CC(C)(C)[C@@]1(O)CC[C@@H](C)O[C@@H]1O[C@H](CO)[C@@H](O)[C@H](O)[C@H]1O please
Data returned: inactive

Data request: Try OCC1OC(Oc2cc(O)cc(/C=C/c3ccc(O)cc3)c2)C(O)C(O)C1O (configuration not stated) next.
Data returned: inactive

Data request: Same read-out for CO[C@H]1C[C@@H]2CC[C@@H](C)[C@@](O)(O2)C(=O)C(=O)N2CCCC[C@H]2C(=O)O[C@H]([C@H](C)C[C@@H]2CC[C@H](n3cnnn3)[C@H](OC)C2)CC(=O)[C@H](C)/C=C(\C)[C@@H](O)[C@@H](OC)C(=O)[C@H](C)C[C@H](C)/C=C/C=C/C=C/1C ?
Data returned: inactive

Data request: // query: C[C@@H]1CC[C@]2(C(=O)O[C@@H]3O[C@H](CO)[C@@H](O)[C@H](O)[C@H]3O)CC[C@]3(C)C(=CCC4[C@@]5(C)C[C@@H](O)[C@H](O)[C@](C)(C(=O)O)C5CC[C@]43C)[C@@H]2[C@]1(C)O (some centres not stated)
Data returned: inactive

Data request: Moving on to O=C1NC(Cc2ccccc2)C(=O)N2CCCC12 (configuration not stated)
Data returned: inactive

Data request: Next: C=C1CC[C@H]2[C@@](C)(CCC(O)[C@@]2(C)CO)[C@@H]1CCC1=CCOC1=O (some centres not stated)
Data returned: inactive

Data request: What do you have for O=C(O)/C=C/c1cc2c(cc1O[C@@H]1O[C@H](CO)[C@@H](O)[C@H](O)[C@H]1O)OCO2 ?
Data returned: inactive

Data request: Quick one: O=C1OCC(c2ccccc2)=C1Cc1ccccc1
Data returned: inactive

Data request: Query CCOCc1cc(OC)c(-c2ccc(C[C@H](NC(=O)c3c(F)cccc3F)C(=O)O)cc2)c(OC)c1 next
Data returned: inactive

Data request: Try COC(=O)CC(O)CC(O)/C=C/c1c(C)ccc2c1C(O)CC(C)C2 (configuration not stated) next.
Data returned: inactive

Data request: Try C[C@]12C=C[C@@]3(CCC4[C@](C)(CO)CCC[C@@]4(C)C3CC1)C2 (some centres not stated) next.
Data returned: inactive

Data request: Further, for CC(C)c1cc(C(=O)N2CC[C@H](NC(=O)C3CC3)C2)n[nH]1 ?
Data returned: inactive

Data request: Also COC(=O)/C=C/C12COC(C)(C)C1C(O)C(OC(C)=O)C1(C)C2CCC2(C)C(c3ccoc3)OC(=O)C3OC321 (configuration not stated) , if possible.
Data returned: inactive

Data request: Same question, C=C1CC[C@@H]2[C@](C)(CO[C@@H]3O[C@H](CO)[C@@H](O)[C@H](O)[C@H]3O)[C@H](O)CC[C@@]2(C)[C@@H]1C/C=C1/C(=O)OC[C@H]1O this time
Data returned: inactive

Data request: Also COc1c2c(c(C)c3c1C(=O)OC3)O[C@@]1(C)CCC3(C(C)(C)O)OC(=O)CC[C@]3(C)[C@H]1C2 (some centres not stated) , if possible.
Data returned: inactive

Data request: Follow-up entry: C/C=C/c1ccc2oc(-c3ccc(O)c(OC)c3)c(C)c2c1
Data returned: inactive
